The reported measurements were obtained from patent US20240317708A1.

- method-description: Caco-2 permeability assay (CacoReady kit)
- Format: in vitro ADME
- test-context: human
measured-metric: Papp

State its Papp: COC(=O)/C=C/CC[C@H](NC(=O)c1oc2ccccc2c1C)C(=O)Nc1cccn(CC(=O)NC23CCCC4CC(CCC42)C3)c1=O (stereo partly drawn) [III-72] 1 to 10 ×10⁻⁶ cm/s

Respond only with Papp recorded for COC(=O)/C=C/CC[C@H](NC(=O)c1ccnn1C)C(=O)Nc1cccn(CC(=O)N[C@H]2C[C@H]3CC[C@]2(C)C3(C)C)c1=O [III-122] < 1 ×10⁻⁶ cm/s

// fetch Papp given entry COC(=O)/C=C/CC[C@H](NC(=O)C1CCc2ccccc2C1)C(=O)Nc1cccn(CC(=O)NC2C3CC4CC2CC(C(=O)N(C)C)(C4)C3)c1=O (stereo partly drawn) [III-137] < 1 ×10⁻⁶ cm/s
